test system: Tobacco mosaic virus; assay: Antiviral activity against Tobacco mosaic virus (TMV) inoculated in whole leaves of Nicotiana tabacum L. assessed as curative effect measured as local lesion number at 500 mg/l after 3 to 4 days; type: functional
measure.name: inhibition at 500 µg/mL (%)
The figure you give is taken to be in %; do not add the unit.

In plain terms, `CCOC(=O)/C(C#N)=C(/Nc1ccc(C(F)(F)F)cc1)N[C@H](C)c1ccccc1` has a documented inhibition at 500 µg/mL of 39.1

Note to self: inhibition at 500 µg/mL recorded for `CCOC(=O)/C(C#N)=C(/NNC(=O)c1cc(OC)c(OC)c(OC)c1)N[C@H](C)c1ccccc1` was 26.7

Reported inhibition at 500 µg/mL of CNCC(=O)N[C@@H](CO)C(=O)N[C@H]1[C@H](O)[C@@H](O)[C@H](n2ccc(N)nc2=O)O[C@@H]1C(N)=O [NINGNANMYCIN] : 28.9

Record summary for `CCOC(=O)/C(C#N)=C(/Nc1ccc([N+](=O)[O-])cc1)N[C@@H](C)c1ccccc1` : reported inhibition at 500 µg/mL = 13.1

Short answer for `CCOC(=O)/C(C#N)=C(/NNC(=O)c1cc(OC)c(OC)c(OC)c1)N[C@@H](C)c1ccccc1` : inhibition at 500 µg/mL was 12.1

response.value for `CCOC(=O)/C(C#N)=C(/Nc1ccc(C(F)(F)F)cc1)N[C@@H](C)c1ccccc1` (field: inhibition at 500 µg/mL) = 15.2

Per the records, this compound ( `CCOC(=O)/C(C#N)=C(/Nc1ccc(Br)cc1)N[C@@H](C)c1ccccc1` ) has inhibition at 500 µg/mL equal to 3.4

inhibition at 500 µg/mL recorded for this compound, `CCOC(=O)/C(C#N)=C(/Nc1ccc([N+](=O)[O-])cc1)N[C@H](C)c1ccccc1` , is 43.1

For `CCOC(=O)/C(C#N)=C(/Nc1ccc(Br)cc1)N[C@H](C)c1ccccc1` the compound record lists inhibition at 500 µg/mL as 12.3

* * *

tested on: Brassica rapa subsp. oleifera; assay: Herbicidal activity against Brassica rapa subsp. oleifera assessed as inhibition effect at 1500 g/ha sprayed soil immediately after seed planting; assay type: functional
measure.name: inhibition at 1500 g/ha (%)
Response body: numeric value in %, unit text excluded.

Given item `CCOC(=O)/C(C#N)=C(/Nc1ccc([N+](=O)[O-])cc1)N[C@H](C)c1ccccc1` , the value recorded as its inhibition at 1500 g/ha is 21.4

Record `CCOC(=O)/C(C#N)=C(/Nc1ccc(Br)cc1)N[C@@H](C)c1ccccc1` , field inhibition at 1500 g/ha: 1.29

For reference, reported inhibition at 1500 g/ha for `CCOC(=O)/C(C#N)=C(/Nc1ccc(Br)cc1)N[C@H](C)c1ccccc1` stands at 5.38

* * *

Give measured inhibition at 5 µM for each item. Keep answers brief.
system: PC-3; assay: Antiproliferative activity against Homo sapiens (human) PC3 cells at 5 uM measured after 72 hr by MTT assay; assay type: functional; conditions: PC-3, 72 h
Give the quantity in %, number only.

Query `CCOC(=O)/C(C#N)=C(/Nc1ccc(Br)cc1)N[C@H](C)c1ccccc1` yields inhibition at 5 µM of 1.5

Input `CCOC(=O)/C(C#N)=C(/NNC(=O)c1cc(OC)c(OC)c(OC)c1)N[C@H](C)c1ccccc1` . Output inhibition at 5 µM: 32.1

For `CCOC(=O)/C(C#N)=C(/Nc1ccc(Br)cc1)N[C@@H](C)c1ccccc1` the compound record lists inhibition at 5 µM as 24.7

Value of measured inhibition at 5 µM for the entry `CCOC(=O)/C(C#N)=C(/Nc1ccc(C(F)(F)F)cc1)N[C@H](C)c1ccccc1` : 59.4

Just so you know, measured inhibition at 5 µM for `CCOC(=O)/C(C#N)=C(/NNC(=O)c1cc(OC)c(OC)c(OC)c1)N[C@@H](C)c1ccccc1` came out at 3.2

Value of measured inhibition at 5 µM for the entry `CCOC(=O)/C(C#N)=C(/Nc1ccc([N+](=O)[O-])cc1)N[C@@H](C)c1ccccc1` : 0.7

Note to self: inhibition at 5 µM recorded for `O=c1[nH]cc(F)c(=O)[nH]1` was 41.1

Value of inhibition at 5 µM reported for the compound `CCOC(=O)/C(C#N)=C(/Nc1ccc(C(F)(F)F)cc1)N[C@@H](C)c1ccccc1` is 49.1

`CCOC(=O)/C(C#N)=C(/Nc1ccc([N+](=O)[O-])cc1)N[C@H](C)c1ccccc1` has a reported inhibition at 5 µM of 2.9

Provenance of the data: ChEMBL document CHEMBL3045132
